Answer each item with its documented CYTOTOXIC ACTIVITY ×2 Pep(−).
Test system: peptide-pulsed TISI cells (HLA-A24/24)
PROTOCOL_TEXT: CTL lines induced with peptide-pulsed DCs, four-hour 51Cr release assay
Assay type: cell-based, human
STATED_CONDITIONS: CTL line induced with the peptide; ×2; targets without peptide
Where no end group is shown, it is not given here.
Numbers only, in %.

Reported CYTOTOXIC ACTIVITY ×2 Pep(−) of KFGNLSTYL [SEQ ID NO:4] : 2

Reported CYTOTOXIC ACTIVITY ×2 Pep(−) of AFGSGMESL [SEQ ID NO:9] : 0

Reported CYTOTOXIC ACTIVITY ×2 Pep(−) of SYMISYAGM [SEQ ID NO:5] : 0

Reported CYTOTOXIC ACTIVITY ×2 Pep(−) of GYRIYDVVL [SEQ ID NO:3] : 0

Reported CYTOTOXIC ACTIVITY ×2 Pep(−) of WYKLGPQPL [SEQ ID NO:1] : 0

Reported CYTOTOXIC ACTIVITY ×2 Pep(−) of EFPRDRLKL [SEQ ID NO:6] : 0

Reported CYTOTOXIC ACTIVITY ×2 Pep(−) of DFLTLEHLI [SEQ ID NO:12] : 0

Reported CYTOTOXIC ACTIVITY ×2 Pep(−) of TFSELVEHL [SEQ ID NO:7] : 0

Would you mind listing CYTOTOXIC ACTIVITY ×2 Pep(−) for each of the following sequences?
1. RFVPDGNRI [SEQ ID NO:8]
2. KWEFPRDRL [SEQ ID NO:11]
3. KNLDTLWKL [SEQ ID NO:10]
4. VYSSEEAEL [SEQ ID NO:2]

[0, 0, 1, 3]

----------
Tested on: peptide-pulsed TISI cells (HLA-A24/24)
PROTOCOL_TEXT: CTL lines induced with peptide-pulsed DCs, four-hour 51Cr release assay
Format: cell-based, human
STATED_CONDITIONS: CTL line induced with the peptide; ×20; peptide-pulsed targets
Where no end group is shown, it is not given here.
PROPERTY_NAME: CYTOTOXIC ACTIVITY ×20 Pep(+) (%)
Numbers only, in %.

GET /values?item= RFVPDGNRI [SEQ ID NO:8] &system= peptide-pulsed TISI cells (HLA-A24/24) returns CYTOTOXIC ACTIVITY ×20 Pep(+): 98

GET /values?item= KWEFPRDRL [SEQ ID NO:11] &system= peptide-pulsed TISI cells (HLA-A24/24) returns CYTOTOXIC ACTIVITY ×20 Pep(+): 23

GET /values?item= DFLTLEHLI [SEQ ID NO:12] &system= peptide-pulsed TISI cells (HLA-A24/24) returns CYTOTOXIC ACTIVITY ×20 Pep(+): 13

GET /values?item= TFSELVEHL [SEQ ID NO:7] &system= peptide-pulsed TISI cells (HLA-A24/24) returns CYTOTOXIC ACTIVITY ×20 Pep(+): 0

GET /values?item= GYRIYDVVL [SEQ ID NO:3] &system= peptide-pulsed TISI cells (HLA-A24/24) returns CYTOTOXIC ACTIVITY ×20 Pep(+): 57

Would you mind listing CYTOTOXIC ACTIVITY ×20 Pep(+) for each of the following sequences?
1. KFGNLSTYL [SEQ ID NO:4]
2. SYMISYAGM [SEQ ID NO:5]
3. KNLDTLWKL [SEQ ID NO:10]

3
41
3

Would you mind listing CYTOTOXIC ACTIVITY ×20 Pep(+) for each of the following sequences?
1. VYSSEEAEL [SEQ ID NO:2]
2. AFGSGMESL [SEQ ID NO:9]
3. WYKLGPQPL [SEQ ID NO:1]
4. EFPRDRLKL [SEQ ID NO:6]

1. 39
2. 6
3. 6
4. 3
